# experimental_system: T1, huKv1.3 (Homo sapiens, UniProt P22001)
# T1 construct: host or cells: CHO
# T1 sequence (P22001 whole entry): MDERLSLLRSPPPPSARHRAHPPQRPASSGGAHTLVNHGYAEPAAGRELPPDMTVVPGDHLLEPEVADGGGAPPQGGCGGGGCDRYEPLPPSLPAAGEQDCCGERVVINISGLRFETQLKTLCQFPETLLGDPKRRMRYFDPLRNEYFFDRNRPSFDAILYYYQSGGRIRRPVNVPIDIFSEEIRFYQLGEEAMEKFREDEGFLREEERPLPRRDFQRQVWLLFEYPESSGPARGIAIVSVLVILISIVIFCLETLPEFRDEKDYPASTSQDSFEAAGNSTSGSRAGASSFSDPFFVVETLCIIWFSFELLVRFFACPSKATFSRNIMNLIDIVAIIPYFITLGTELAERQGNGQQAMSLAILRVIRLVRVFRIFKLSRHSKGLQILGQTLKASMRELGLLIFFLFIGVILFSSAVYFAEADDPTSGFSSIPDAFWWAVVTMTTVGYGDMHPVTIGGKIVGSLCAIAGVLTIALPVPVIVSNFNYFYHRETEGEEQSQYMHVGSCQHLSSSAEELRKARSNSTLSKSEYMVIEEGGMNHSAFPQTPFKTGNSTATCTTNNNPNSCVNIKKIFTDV
# assay_comment: QPatch automated whole-cell patch-clamp, CHO cells stably expressing huKv1.3 (Example 8)
# Format: cell-based
# particulars: Kv1.3 channels, IgG KnotBody, Table 11A
pIC50: −log10 of the molar value.

{"molecule": "KB_A07_KTX: kaliotoxin in VL CDR2 of KB_A07, IgG1 (antibody, V domains shown) VH: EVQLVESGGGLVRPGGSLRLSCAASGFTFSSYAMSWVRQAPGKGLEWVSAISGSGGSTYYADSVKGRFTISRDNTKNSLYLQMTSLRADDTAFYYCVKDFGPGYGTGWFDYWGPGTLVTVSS VL: DIQMTQSPSSLSASVGDRVTITCRASQSISSYLNWYQQKPGKAPKLLIYAAGVGVEINVKCSGSPQCLKPCKDAGMRFGKCMNRKCHCTPKSRSGVPSRFSGSGSGTDFTLTISSLQPEDFATYYCQQGASPPYTFGQGTKVEIKR", "pIC50": 6.05}
